- System: SK-MEL-5 melanoma
- Assay Text: NCI-60 one-dose screen, 48 h (100 = growth as untreated, 0 = no growth, -100 = all killed)
- Recorded Conditions: 10 µM unless noted
About 83,000 compounds went through this panel and 20% of them were active in at least one assay; those are over-represented in the sample as a whole.
Decision: growth >= 10% yields true, all other cases yield false.

Example entries and their recorded answers appear below.
[[record]]
compound = "COc1cc(Nc2ncc(F)c(Nc3ccc4c(n3)NC(=O)C(C)(C)O4)n2)cc(OC)c1OC"
classification = "true"

[[record]]
compound = "CC1(C=O)NC(=O)NC1=O (stereo not given)"
classification = "true"

[[record]]
compound = "CC(C)=CCc1cc2c(cc1O)C1=C(C(=O)C3=C(NCCS3(=O)=O)C1=O)C(C=C(C)C)O2 (stereo not given)"
classification = "false"

[[record]]
compound = "COCC(=O)NC/C=C/c1ccc2ncnc(Nc3ccc(Oc4ccc(C)nc4)c(C)c3)c2c1"
classification = "true"

[[record]]
compound = "CCN(CC)C(=O)C[N+](C)(C)CCOC(c1ccccc1)c1ccccc1"
classification = "true"


Kindly consider the entry below.
[Q] For this compound, is measured growth 10% or higher? C/C=C/C=N/NC(=S)Nc1ccccc1
[A] true

###

Reported growth values follow for various compounds
- Tested on: SN12C renal
- Assay Text: NCI-60 one-dose screen, 48 h (100 = growth as untreated, 0 = no growth, -100 = all killed)
- Recorded Conditions: 10 µM unless noted
The panel holds about 83,000 compounds, 20% with a hit somewhere; the sample as a whole holds those more often.
Please give a number only; it is taken to be in %.

[Q] Request the reported growth associated with CNC(=O)c1cc(Oc2ccc3nc(NC(=O)Nc4ccc(Cl)c(C(F)(F)F)c4)sc3c2)ccn1
[A] 15.6

[Q] Request the reported growth associated with CC(N)C(Cc1ccccc1)c1ccc(Cl)cc1 (stereo not given)
[A] 90.7

[Q] Request the reported growth associated with CCCCCCCCCCCC[n+]1ccccc1
[A] 3.89

[Q] Request the reported growth associated with Nc1ncnc2c1c(-c1cccc(OCc3ccccc3)c1)cn2C1CC(CN2CCC2)C1 (stereo not given)
[A] 35.5

[Q] Request the reported growth associated with O=C(NO)c1ccc(Cn2c(=O)n(CCc3ccccc3)c(=O)c3ccccc32)cc1
[A] 38.5

[Q] Request the reported growth associated with CCNCCNc1cc(-c2ccc(Cl)c(Cl)c2)c(C#N)c2nc3ccccc3n12
[A] -68.9

[Q] Request the reported growth associated with CN1CC[C@H](c2c(O)cc(O)c3c(=O)cc(-c4ccccc4Cl)oc23)[C@H](O)C1
[A] 10.4

###

- System: HS 578T breast
- Assay Text: NCI-60 one-dose screen, 48 h
- Recorded Conditions: 10 µM
Compounds without any hit were thinned out: in the full panel of roughly 83,000, 20% have a hit. Active and inactive are the calls of the source. The calls were made as follows: active = growth percent below 10; inactive = the rest.
Assign a class; possible classes are t (active), f (inactive)

[[record]]
compound = "CCCCCCCC(=O)SCC/C=C/[C@@H]1CC(=O)NCc2cccc(n2)C2=N[C@@](C)(CS2)C(=O)N[C@@H](C(C)C)C(=O)N1"
study_target = "HS 578T breast"
classification = "f"


[Q] In this assay, the call recorded for COC(=O)[C@H](Cc1ccc(O)cc1)NC(=O)[C@@H](OC)[C@@H]1Cc2cc3cc(OC4CC(OC5CC(O)C(O)C(C)O5)C(O)C(C)O4)c(C)c(O)c3c(O)c2C(=O)[C@H]1OC1CC(OC2CC(OC3CC(C)(O)C(O)C(C)O3)C(O)C(C)O2)C(O)C(C)O1 (some centres not stated) was what?
[A] t

[Q] In this assay, the call recorded for CC1(/C=N/NC(N)=S)NC(=O)NC1=O (configuration not stated) was what?
[A] f

[Q] In this assay, the call recorded for O=C(CNc1nc(-c2ccc(Cl)cc2)cs1)Nc1ccc(-c2nc3ccccc3s2)cc1 was what?
[A] f

[Q] In this assay, the call recorded for CC(C)C1CCC(C)C(C2(C#N)C(N)=NC(N)=C2C#N)C1=O (configuration not stated) was what?
[A] f

[Q] In this assay, the call recorded for O=C(COc1ccc(/C=C2\Cc3ccc(Cl)cc3C2=O)cc1)Nc1nccs1 was what?
[A] f

[Q] In this assay, the call recorded for COc1cc(NCCCN)c2ncccc2c1 was what?
[A] f

###

- System: OVCAR-4 ovarian
- Assay Text: NCI-60 one-dose screen, 48 h (100 = growth as untreated, 0 = no growth, -100 = all killed)
- Recorded Conditions: 10 µM unless noted
The panel holds about 83,000 compounds, 20% with a hit somewhere; the sample as a whole holds those more often.
Quantity Name: growth (%)
Please give a number only; it is taken to be in %.

Here are 5 compounds together with their reported answers.
[[record]]
smiles_text = "COC(=O)[C@]12CC[C@@H](C)[C@H](C)[C@@H]1C1=CC[C@@H]3[C@@]4(C)C[C@@H](OC(=O)/C=C/c5ccccc5)[C@H](O)[C@@](C)(CO)[C@@H]4[C@H](O)C[C@@]3(C)[C@]1(C)CC2"
quantity_name = "growth"
result = 23.3

[[record]]
smiles_text = "O=C(NOC[C@H](O)CO)c1ccc(F)c(F)c1Nc1ccc(I)cc1F"
quantity_name = "growth"
result = 62

[[record]]
smiles_text = "CCOC(=O)C1=C(C)N=C2Sc3cc(OC(F)(F)F)ccc3N2[C@H]1c1ccccn1"
quantity_name = "growth"
result = 28.3

[[record]]
smiles_text = "Cc1c(Cn2c(C)nc3c(C(=O)O)cc(N4CCOCC4)cc32)cccc1C(F)(F)F"
quantity_name = "growth"
result = 96.2

[[record]]
smiles_text = "C[C@@H](C[C@H](CCO)c1cc(C(F)(F)F)cc(C(F)(F)F)c1)c1ccc2ccccc2c1"
quantity_name = "growth"
result = 94.6


[Q] Request the reported growth associated with CC(C)(C)CC(C)(C)Nc1c(-c2c(O)c3ccccc3oc2=O)nc2c(Cl)cc(C(F)(F)F)cn12
[A] 100

[Q] Request the reported growth associated with COc1ccc(Cc2cc(-c3ccccc3C)n[nH]c2=O)cc1
[A] 92.5

[Q] Request the reported growth associated with CCCS(=O)(=O)Nc1ccc(F)c(C(=O)c2c[nH]c3ncc(-c4ccc(Cl)cc4)cc23)c1F
[A] 49.3

###

- Tested on: OVCAR-8 ovarian
- Assay Text: NCI-60 one-dose screen, 48 h (100 = growth as untreated, 0 = no growth, -100 = all killed)
- Recorded Conditions: 10 µM unless noted
The panel holds about 83,000 compounds, 20% with a hit somewhere; the sample as a whole holds those more often.
Reported growth values follow for various compounds
Please give a number only; it is taken to be in %.

Here are 3 compounds together with their reported answers.
[[record]]
compound = "O=C(/C=C/c1ccc2c(c1)OCO2)c1c(O)c2ccccc2oc1=O"
study_target = "OVCAR-8 ovarian"
result = 93.9

[[record]]
compound = "COC(=O)[C@H](Cc1ccccc1)NC(=O)[C@@H](OC)[C@@H]1Cc2cc3cc(OC4CC(OC5CC(O)C(O)C(C)O5)C(O)C(C)O4)c(C)c(O)c3c(O)c2C(=O)[C@H]1OC1CC(OC2CC(OC3CC(C)(O)C(O)C(C)O3)C(O)C(C)O2)C(O)C(C)O1 (stereo partly drawn)"
study_target = "OVCAR-8 ovarian"
result = 7.42

[[record]]
compound = "CN[C@@H]1C[C@H]2O[C@@](C)([C@@H]1OC)n1c3ccccc3c3c4c(c5c6ccccc6n2c5c31)C(=O)N[C@H]4O"
study_target = "OVCAR-8 ovarian"
result = -36.7


[Q] # returns recorded growth (system: OVCAR-8 ovarian) for Nc1c(Cl)cccc1[N+](=O)[O-]
[A] 102

[Q] # returns recorded growth (system: OVCAR-8 ovarian) for O=c1nc2c(-c3nc4ccccc4s3)n[nH]n2c2sc3c(c12)CCCC3
[A] 94

[Q] # returns recorded growth (system: OVCAR-8 ovarian) for COC[C@@H](C)n1c(C2CCOCC2)nc2c1C1C=C(OC)C(c3c(C)noc3C)=CC1N=C2 (stereo partly drawn)
[A] 57.1

[Q] # returns recorded growth (system: OVCAR-8 ovarian) for Cc1nc2cc(-c3nn(C(C)C)c4ncnc(N)c34)ccc2o1
[A] -29.1

[Q] # returns recorded growth (system: OVCAR-8 ovarian) for O=CC(OC(=O)c1ccccc1)C(OC(=O)c1ccccc1)C(COC(c1ccccc1)(c1ccccc1)c1ccccc1)OC(=O)c1ccccc1 (stereo not drawn)
[A] -17.6

###

- Tested on: MOLT-4 leukemia
- Assay Text: NCI-60 one-dose screen, 48 h
- Recorded Conditions: 10 µM unless noted
- Description: Growth inhibition of the MOLT-4 human tumor cell line is measured as a screen for anti-cancer activity. Cells are grown in 96 well plates and exposed to the test compound for 48 hours. Compounds are tested at a single concentration, which is 10^-5 M for most compounds. The reported endpoint is percent growth (GI% or GIPRCNT), where numbers from 0 - 100% represent growth inhibition, and numbers from -100% - 0 represent cell death. For example, a value of 40 represents 60% growth inhibition. […]
About 83,000 compounds went through this panel and 20% of them were active in at least one assay; those are over-represented in the sample as a whole. Calls of active or inactive are those of the source. How the source made its calls: active means growth percent below 10; inactive means the rest.
Assign a class; possible classes are 1 (yes) for active, 0 (no) for inactive

Example entries and their recorded answers appear below.
[[record]]
molecule = "COc1ccc2c(OCc3nnc4ccc(-c5ccccc5)nn34)ccnc2c1"
study_target = "MOLT-4 leukemia"
classification = "0 (no)"

[[record]]
molecule = "CCc1nc2cc(/C=C/C(=O)NO)ccc2c(=O)n1CCc1ccc(OC)cc1"
study_target = "MOLT-4 leukemia"
classification = "1 (yes)"

[[record]]
molecule = "COC(=O)Nc1nc2ccc(C(=O)c3ccc(N(C)C4COC4)cc3)cc2[nH]1"
study_target = "MOLT-4 leukemia"
classification = "0 (no)"

[[record]]
molecule = "CCS(=O)(=O)N1CCN(c2ccc(Nc3ncc(C(N)=O)c(NC4CC4)n3)cc2)CC1"
study_target = "MOLT-4 leukemia"
classification = "0 (no)"

[[record]]
molecule = "COC1CCC(N2C(=O)CNc3ncc(-c4ccc(C(C)(C)O)nc4)nc32)CC1 (stereo not given)"
study_target = "MOLT-4 leukemia"
classification = "1 (yes)"


Kindly consider the entry below.
[Q] In this assay, the call recorded for ClCc1ccc(-c2ccc(Cn3cnc4c(Cl)nc(Cl)nc43)cc2)cc1 was what?
[A] 1 (yes)
